Attribution: patent US20230117034A1

# Target Or Test System: CDK12/CycK (Homo sapiens)
# Sequence (Q9NYV4 with tags, fused parts or gaps): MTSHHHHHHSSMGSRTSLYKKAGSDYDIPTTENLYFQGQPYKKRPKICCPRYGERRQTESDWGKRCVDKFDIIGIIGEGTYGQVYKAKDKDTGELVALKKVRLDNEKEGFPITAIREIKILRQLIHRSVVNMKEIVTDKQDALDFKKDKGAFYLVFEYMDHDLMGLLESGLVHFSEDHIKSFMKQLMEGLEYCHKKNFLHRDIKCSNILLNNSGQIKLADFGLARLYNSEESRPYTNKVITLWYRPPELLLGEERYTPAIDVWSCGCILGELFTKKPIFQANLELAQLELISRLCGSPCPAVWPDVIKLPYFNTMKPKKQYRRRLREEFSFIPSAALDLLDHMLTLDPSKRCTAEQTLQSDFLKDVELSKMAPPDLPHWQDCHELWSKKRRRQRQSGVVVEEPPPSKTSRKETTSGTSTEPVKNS
# Sequence (O75909 1-300 partner limits assumed): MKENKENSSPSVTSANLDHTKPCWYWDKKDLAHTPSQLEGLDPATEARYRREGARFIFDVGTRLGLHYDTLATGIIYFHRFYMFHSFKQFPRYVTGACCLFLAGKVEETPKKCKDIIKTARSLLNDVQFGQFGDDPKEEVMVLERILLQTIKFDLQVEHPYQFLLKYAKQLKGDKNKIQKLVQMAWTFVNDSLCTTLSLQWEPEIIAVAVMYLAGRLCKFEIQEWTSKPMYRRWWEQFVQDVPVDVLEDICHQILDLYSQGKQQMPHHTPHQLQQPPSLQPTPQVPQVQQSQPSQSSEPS
# Assay Overview: CDK12/CycK high ATP kinase assay (TR-FRET, 2 mM ATP)
# Assay type: biochemical
# Run Parameters: 2 mM ATP (high ATP); median; read-out: CDK12/CyclinK, 2 mM ATP (high ATP), IC50-[mol/l] (median)
Assign labels as follows, please: yes for IC50 below 5 µM; no for IC50 equal to or exceeding 5 µM.

INSERT INTO assay_data (molecule, group) VALUES
  ('Cc1cnn2c(NCc3nc4ccccc4[nH]3)nc(N3CCN(C)CC3)nc12', 'no'),
  ('Fc1cc2nc(CNc3nc(N4CC5CCC(C4)N5)nc4c(Br)cnn34)[nH]c2cc1F', 'yes'),
  ('CN1CCC(Oc2nc(NCc3nc4ccccc4[nH]3)n3ncc(Br)c3n2)CC1', 'no'),
  ('CC1CN(C)CCN1c1nc(NCc2nc3ccccc3[nH]2)n2ncc(Br)c2n1 (single isomer, unassigned; enantiomer 2) [Example 261]', 'no'),
  ('NCCc1cccc2[nH]c(CNc3nc(N4CCOCC4)nc4c(Br)cnn34)nc12', 'no'),
  ('Cc1[nH]c(CNc2nc(N3CCOCC3)nc3c(Br)cnn23)nc1-c1ccccc1', 'yes'),
  ('Brc1cnn2c(NCc3nc4ccccc4[nH]3)nc(N3CCOCC3)nc12', 'yes'),
  ('Brc1cnn2c(NCc3nc4ccccc4[nH]3)nc(N3C[C@@H]4C[C@H]3CO4)nc12', 'no'),
  ('N[C@@H]1CCN(c2nc(NCc3nc4ccccc4[nH]3)n3ncc(Br)c3n2)C1', 'no'),
  ('Cc1ccnc2[nH]c(CNc3nc(N4CCOCC4)nc4c(Br)cnn34)nc12', 'yes'),
  ('CCC1COCCN1c1nc(NCc2nc3ccccc3[nH]2)n2ncc(Br)c2n1 (centres unmarked)', 'no'),
  ('CC1(O)CCN(c2nc(NCc3nc4ccccc4[nH]3)n3ncc(Br)c3n2)C1 (single isomer, unassigned) [Example 282]', 'no'),
  ('CN(CCN1CCCC1)c1nc(NCc2nc3ccccc3[nH]2)n2ncc(Br)c2n1', 'no'),
  ('Fc1ccc2[nH]c(CNc3nc(N4CCNCC4)nc4c(C5CC5)cnn34)nc2c1', 'no'),
  ('C[C@@]1(O)CCN(c2nc(NCc3nc4ccccc4[nH]3)n3ncc(Br)c3n2)C1 (single isomer, unassigned)', 'no'),
  ('FC(F)(F)Oc1cccc2[nH]c(CNc3nc(N4CCOCC4)nc4c(Br)cnn34)nc12', 'yes'),
  ('OC[C@H]1CCCCN1c1nc(NCc2nc3ccccc3[nH]2)n2ncc(Br)c2n1', 'yes'),
  ('OC[C@@H]1CCCCN1c1nc(NCc2nc3c(F)cccc3[nH]2)n2ncc(C3CC3)c2n1', 'yes'),
  ('Brc1cnn2c(NCc3nc4ccccc4[nH]3)nc(N3CC4CCC(C3)O4)nc12', 'no'),
  ('Fc1cc(F)cc(-c2nnc(CNc3nc(N4CCOCC4)nc4c(C(F)(F)F)cnn34)[nH]2)c1', 'yes'),
  ('FC(F)(F)c1ccccc1-c1cnc(CNc2nc(N3CCOCC3)nc3c(Br)cnn23)[nH]1', 'yes'),
  ('C[C@H]1CCCCN1c1nc(NCc2nc3ccccc3[nH]2)n2ncc(Br)c2n1', 'yes'),
  ('Cc1cnn2c(NCc3nc4c(F)c(F)ccc4[nH]3)nc(N(C)CC(C)(C)O)nc12', 'no'),
  ('Clc1ccccc1-c1nnc(CNc2nc(N3CCOCC3)nc3c(Br)cnn23)[nH]1', 'no'),
  ('Brc1cnn2c(NCc3nc4ccccc4[nH]3)nc(OCCN3CCCC3)nc12', 'no'),
  ('Clc1ccccc1-c1cnc(CNc2nc(N3CCOCC3)nc3c(Br)cnn23)[nH]1', 'yes'),
  ('CC1CN(C)CCN1c1nc(NCc2nc3ccccc3[nH]2)n2ncc(Br)c2n1 (centres unmarked) [Example 156]', 'no'),
  ('CC1(C)CN(c2nc(NCc3nnc(-c4ccccc4)[nH]3)n3ncc(C4CC4)c3n2)CCO1', 'no'),
  ('CN1CC2CCC1CN2c1nc(NCc2nc3ccccc3[nH]2)n2ncc(Br)c2n1 (centres unmarked)', 'no'),
  ('CCN1CCN(c2nc(NCc3nc4ccccc4[nH]3)n3ncc(Br)c3n2)CC1', 'no'),
  ('CN(CC(C)(C)O)c1nc(NCc2nc3c(F)cccc3[nH]2)n2ncc(Cl)c2n1', 'yes'),
  ('Brc1cnn2c(NCc3nc4ccccc4[nH]3)nc(N3C[C@H]4CN[C@H]4C3)nc12.O=C(O)C(F)(F)F', 'no');
